Biological target: Axl (UniProt P30530)
Sequence (P30530 26-451 limits assumed): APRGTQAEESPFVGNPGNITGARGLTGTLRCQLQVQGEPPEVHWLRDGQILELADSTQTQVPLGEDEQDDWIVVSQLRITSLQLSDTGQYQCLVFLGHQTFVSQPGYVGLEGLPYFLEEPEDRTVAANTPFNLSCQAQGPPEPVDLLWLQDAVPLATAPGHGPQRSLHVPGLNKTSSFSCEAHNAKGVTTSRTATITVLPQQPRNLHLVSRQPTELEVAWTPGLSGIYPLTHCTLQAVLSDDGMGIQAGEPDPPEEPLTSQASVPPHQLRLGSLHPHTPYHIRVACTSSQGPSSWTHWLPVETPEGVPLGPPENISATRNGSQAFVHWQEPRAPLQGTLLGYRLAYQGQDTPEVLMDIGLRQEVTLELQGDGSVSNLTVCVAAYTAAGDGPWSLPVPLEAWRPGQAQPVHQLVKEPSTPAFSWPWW
Assay: ELISA, 1:9 dilution
ASSAY_READOUT: Affinity ELISA CPE mutant ratio (1:9, pH 6.0/7.4)
Returns: the value as a bare number; no unit string appended.

Could you share which Affinity ELISA CPE mutant ratio (1:9, pH 6.0/7.4) value was measured for HC-W110T (antibody, V domains shown) VH: EVQLVQSGAEVKKPGATVKISCKVSGYSFTGHTMNWIRQPPGKGLEWIGLIKPSNGGTSYNQKFKGRVTISADKSISTAYLQWSSLKASDTAMYYCAHGHYESYFAMDYTGQGTLVTVSS VL: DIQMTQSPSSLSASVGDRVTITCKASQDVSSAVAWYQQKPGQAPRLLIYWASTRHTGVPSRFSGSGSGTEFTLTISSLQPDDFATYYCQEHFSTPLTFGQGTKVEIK ? 1.37

Which measured Affinity ELISA CPE mutant ratio (1:9, pH 6.0/7.4) value corresponds to HC-A106D (antibody, V domains shown) VH: EVQLVQSGAEVKKPGATVKISCKVSGYSFTGHTMNWIRQPPGKGLEWIGLIKPSNGGTSYNQKFKGRVTISADKSISTAYLQWSSLKASDTAMYYCAHGHYESYFDMDYWGQGTLVTVSS VL: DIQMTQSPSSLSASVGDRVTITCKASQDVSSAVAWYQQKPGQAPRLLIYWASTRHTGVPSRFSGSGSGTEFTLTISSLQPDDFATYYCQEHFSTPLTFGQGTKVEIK ? 2.51

Entry HC-S103Q (antibody, V domains shown) VH: EVQLVQSGAEVKKPGATVKISCKVSGYSFTGHTMNWIRQPPGKGLEWIGLIKPSNGGTSYNQKFKGRVTISADKSISTAYLQWSSLKASDTAMYYCAHGHYEQYFAMDYWGQGTLVTVSS VL: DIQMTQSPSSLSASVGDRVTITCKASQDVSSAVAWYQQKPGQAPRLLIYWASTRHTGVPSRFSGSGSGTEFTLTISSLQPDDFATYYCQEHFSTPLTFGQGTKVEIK has what Affinity ELISA CPE mutant ratio (1:9, pH 6.0/7.4)? 2.26
